biological target: PDZ3 (PSD-95) (Homo sapiens, UniProt P78352)
Sequence (P78352 313-393 limits assumed): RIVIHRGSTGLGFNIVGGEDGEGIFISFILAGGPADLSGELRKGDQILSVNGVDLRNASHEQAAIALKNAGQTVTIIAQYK
pIC50: −log10 of the molar value.
Label Condition not met if pIC50 falls below 4; label Condition met in every other case.

Some solved entries appear below for comparison.
CC(=O)N[C@@H](Cc1ccc(O)cc1)C(=O)N[C@@H](CO)C(=O)N[C@@H](CC(C)C)C(=O)N[C@@H](CO)C(=O)N[C@@H](CCCCN)C(=O)N[C@@H](Cc1c[nH]cn1)C(=O)N[C@@H](CCC(=O)O)C(=O)N[C@@H](CO)C(=O)N[C@@H](CCC(=O)O)C(=O)N[C@@H](Cc1ccc(O)cc1)C(=O)N[C@@H](CC(N)=O)C(=O)N[C@H](C(=O)N[C@H](C(=O)N[C@@H](CCCNC(=N)N)C(=O)N[C@H](C(=O)O)C(C)C)[C@@H](C)O)[C@@H](C)O = Condition not met
CC[C@H](C)[C@H](NC(=O)[C@H](Cc1ccccc1)NC(=O)[C@H](CO)NC(=O)[C@H](CCCNC(=N)N)NC(=O)[C@H](CCCCN)NC(=O)[C@@H]1CCCN1C(=O)[C@H](CCCCN)NC(=O)[C@H](C)NC(=O)[C@H](C)NC(=O)[C@@H](NC(=O)[C@H](Cc1ccc(O)cc1)NC(C)=O)[C@@H](C)O)C(=O)N[C@@H](CCC(=O)O)C(=O)N[C@@H](CO)C(=O)N[C@@H](CC(N)=O)C(=O)N[C@H](C(=O)O)C(C)C = Condition met
CC[C@H](C)[C@H](NC(=O)[C@@H]1CCCN1C(=O)[C@H](Cc1ccc(O)cc1)NC(C)=O)C(=O)NCC(=O)NCC(=O)N[C@@H](CO)C(=O)N[C@@H](CC(C)C)C(=O)N[C@@H](CC(N)=O)C(=O)N[C@@H](CO)C(=O)N[C@H](C(=O)N[C@H](C(=O)N[C@@H](CC(=O)O)C(=O)N[C@@H](CO)C(=O)N[C@@H](C)C(=O)N[C@@H](CC(C)C)C(=O)O)[C@@H](C)O)[C@@H](C)O = Condition met
CC(=O)N[C@@H](Cc1ccc(O)cc1)C(=O)N[C@@H](CC(N)=O)C(=O)N[C@@H](CO)C(=O)N[C@H](C(=O)N[C@@H](CC(N)=O)C(=O)N[C@@H](CC(C)C)C(=O)N1CCC[C@H]1C(=O)N[C@@H](Cc1c[nH]cn1)C(=O)NCC(=O)N[C@@H](Cc1c[nH]cn1)C(=O)N[C@@H](CO)C(=O)N[C@H](C(=O)N[C@H](C(=O)N[C@@H](CCCNC(=N)N)C(=O)N[C@H](C(=O)O)C(C)C)[C@@H](C)O)[C@@H](C)O)[C@@H](C)O = Condition met

Exam item: Textbook exercise: given the entry "CC(=O)N[C@@H](Cc1ccc(O)cc1)C(=O)N[C@@H](C)C(=O)N[C@@H](CO)C(=O)N[C@@H](CC(N)=O)C(=O)N[C@H](C(=O)N[C@@H](CC(N)=O)C(=O)N[C@H](C(=O)N[C@@H](CC(C)C)C(=O)N[C@@H](CC(N)=O)C(=O)N[C@@H](CCCNC(=N)N)C(=O)N[C@@H](CCCCN)C(=O)N[C@H](C(=O)N[C@H](C(=O)N1CCC[C@H]1C(=O)N[C@H](C(=O)O)C(C)C)[C@@H](C)O)[C@@H](C)O)[C@@H](C)O)[C@@H](C)O" , state whether its pIC50 is greater than or equal to 4.
Marked response: Condition met

Origin of values: paper PMC9490041
